- Assay Notes: Inhibition of Influenza A virus (A/California/04/2009(H1N1)) neuraminidase using 4-MU-NANA as substrate preincubated for 5 mins followed by substrate addition and measured after 30 to 60 mins by fluorescence assay
Experimental Endpoint: IC50 (nM)
Numbers only, in nM.

Consider the worked cases shown below.
CCC(CC)O[C@@H]1C=C(C(=O)O)C[C@H](NCc2ccc(Oc3ccccc3C)cc2)[C@H]1NC(C)=O
570
CCC(CC)O[C@@H]1C=C(C(=O)O)C[C@H](NCc2ccc(SCc3ccc(OC)cc3)cc2)[C@H]1NC(C)=O
1700
CCC(CC)O[C@@H]1C=C(C(=O)O)C[C@H](NCc2ccc(OCC3CC3)cc2)[C@H]1NC(C)=O
33000

Now look at this entry.
Q) Would you mind telling me what IC50 value was observed for `CCC(CC)O[C@@H]1C=C(C(=O)O)C[C@H](NCc2ccc(OCc3cccc(B4OC(C)(C)C(C)(C)O4)c3)cc2)[C@H]1NC(C)=O` ?
A) 550

* * *

- Assay Notes: Inhibition of Influenza A virus (A/California/04/2009(H1N1)) neuraminidase using 4-MU-NANA as substrate preincubated for 5 mins followed by substrate addition and measured after 30 to 60 mins by fluorescence assay
Record form. Attribute: pIC50. Fill in for each entry.
Give bare numbers, as −log10 of the molar value.

Consider the worked cases shown below.
CCC(CC)O[C@@H]1C=C(C(=O)O)C[C@H](NCc2ccc(OCC3CCCCC3)cc2)[C@H]1NC(C)=O
4.71
CCC(CC)O[C@@H]1C=C(C(=O)O)C[C@H](NCc2ccc(Oc3ccc(C)cc3)cc2)[C@H]1NC(C)=O
4.91
CCC(CC)O[C@@H]1C=C(C(=O)O)C[C@H](NCc2ccc(OCc3ccc(C)cc3)cc2)[C@H]1NC(C)=O
5.84
CCC(CC)O[C@@H]1C=C(C(=O)O)C[C@H](NCc2ccc(Oc3ccc(OC)cc3)cc2)[C@H]1NC(C)=O
4.84
CCC(CC)O[C@@H]1C=C(C(=O)O)C[C@H](NCc2ccc(Oc3ccc(F)cc3)cc2)[C@H]1NC(C)=O
5.47

For every item in the list below, what is its measured pIC50?
1. CCC(CC)O[C@@H]1C=C(C(=O)O)C[C@H](NCc2ccc(OCC3CCC3)cc2)[C@H]1NC(C)=O
2. CCC(CC)O[C@@H]1C=C(C(=O)O)C[C@H](NCc2ccc(OCc3ccccc3C)cc2)[C@H]1NC(C)=O
3. CCC(CC)O[C@@H]1C=C(C(=O)O)C[C@H](NCc2ccc(OCc3cccc(F)c3)cc2)[C@H]1NC(C)=O
4. CCC(CC)O[C@@H]1C=C(C(=O)O)C[C@H](NCc2ccc(OCc3ccccc3F)cc2)[C@H]1NC(C)=O
5. CCC(CC)O[C@@H]1C=C(C(=O)O)C[C@H](NCc2ccc(OCc3cccc(C)c3)cc2)[C@H]1NC(C)=O
6. CCC(CC)O[C@@H]1C=C(C(=O)O)C[C@H](NCc2ccc(OCc3ccc(OC)cc3)cc2)[C@H]1NC(C)=O
7. CCC(CC)O[C@@H]1C=C(C(=O)O)C[C@H](NCc2ccc(/C=C/c3ccccc3)cc2)[C@H]1NC(C)=O
8. CCC(CC)O[C@@H]1C=C(C(=O)O)C[C@H](NCc2ccc(Oc3cccc(F)c3)cc2)[C@H]1NC(C)=O

A)
1. 4.32
2. 5.33
3. 6.16
4. 6.32
5. 5.92
6. 6.05
7. 6.36
8. 5.65

For every item in the list below, what is its measured pIC50?
1. CCC(CC)O[C@@H]1C=C(C(=O)O)C[C@H](NCc2ccc(O[C@H](C)c3ccccc3)cc2)[C@H]1NC(C)=O
2. CCC(CC)O[C@@H]1C=C(C(=O)O)C[C@H](NCc2ccc(Oc3ccccc3OC)cc2)[C@H]1NC(C)=O
3. CCC(CC)O[C@@H]1C=C(C(=O)O)C[C@H](NCc2ccc(SCc3ccccc3)cc2)[C@H]1NC(C)=O

A)
[4.71, 5.66, 6.19]

* * *

Record form. Attribute: pIC50. Fill in for each entry.
- Assay Notes: Inhibition of Influenza A virus (A/goose/Guangdong/SH7/2013(H5N1)) neuraminidase using 4-MU-NANA as substrate preincubated for 5 mins followed by substrate addition and measured after 30 to 60 mins by fluorescence assay
- Design: species or system H5N1 subtype
Answers are plain numbers, as −log10 of the molar value.

Consider the worked cases shown below.
CCC(CC)O[C@@H]1C=C(C(=O)O)C[C@H](NCc2ccc(/C=C/c3ccccc3)cc2)[C@H]1NC(C)=O
6.59
CCC(CC)O[C@@H]1C=C(C(=O)O)C[C@H](NCc2ccc(Oc3ccc(F)cc3)cc2)[C@H]1NC(C)=O
6.11
CCC(CC)O[C@@H]1C=C(C(=O)O)C[C@H](NCc2ccc(OCc3ccccc3C#N)cc2)[C@H]1NC(C)=O
5.86

Q) Would you mind telling me what pIC50 value was observed for `CCC(CC)O[C@@H]1C=C(C(=O)O)C[C@H](NCc2ccc(NCc3ccccc3)cc2)[C@H]1NC(C)=O` ?
A) 5.82

* * *

Record form. Attribute: pIC50. Fill in for each entry.
- Assay Notes: Inhibition of Influenza A virus (A/goose/Guangdong/SH7/2013(H5N1)) neuraminidase using 4-MU-NANA as substrate preincubated for 5 mins followed by substrate addition and measured after 30 to 60 mins by fluorescence assay
- Set-up: species or system H5N1 subtype
One number for each entry, as −log10 of the molar value.

CCC(CC)O[C@@H]1C=C(C(=O)O)C[C@H](NCc2ccc(Oc3cccc(F)c3)cc2)[C@H]1NC(C)=O
6.04
CCC(CC)O[C@@H]1C=C(C(=O)O)C[C@H](NCc2ccc(Oc3ccc(OC)cc3)cc2)[C@H]1NC(C)=O
5.95
CCC(CC)O[C@@H]1C=C(C(=O)O)C[C@H](NCc2ccc(OCc3cccc(F)c3)cc2)[C@H]1NC(C)=O
6.24
CCC(CC)O[C@@H]1C=C(C(=O)O)C[C@H](NCc2ccc(OCc3cccc(C)c3)cc2)[C@H]1NC(C)=O
6.29

For every item in the list below, what is its measured pIC50?
1. CCC(CC)O[C@@H]1C=C(C(=O)O)C[C@H](NCc2ccc(OCc3ccc(F)cc3)cc2)[C@H]1NC(C)=O
2. CCC(CC)O[C@@H]1C=C(C(=O)O)C[C@H](NCc2ccc(Oc3cccc(C)c3)cc2)[C@H]1NC(C)=O
3. CCC(CC)O[C@@H]1C=C(C(=O)O)C[C@H](NCc2ccc(OCc3ccc(C#N)cc3)cc2)[C@H]1NC(C)=O
4. CCC(CC)O[C@@H]1C=C(C(=O)O)C[C@H](NCc2ccc(OCc3ccc(C)cc3)cc2)[C@H]1NC(C)=O

A)
[6.34, 6.31, 6.38, 6.14]

* * *

- Assay Notes: Cytotoxicity against MDCK cells assessed as reduction in cell viability by MTT assay
- Format: cell-based, Canis lupus familiaris
- Experimental Setup: dog
Experimental Endpoint: CC50

CCC(CC)O[C@@H]1C=C(C(=O)O)C[C@H](N)[C@H]1NC(C)=O [OSELTAMIVIR CARBOXYLATE]
> 250 µM

Now look at this entry.
Q) Would you mind telling me what CC50 value was observed for `CC(=O)N[C@H]1[C@H]([C@H](O)[C@H](O)CO)OC(C(=O)O)=C[C@@H]1NC(=N)N` ?
A) > 250 µM

* * *

- Test system: Influenza A virus
- Assay Notes: microbe, parasite or virus in culture
- Experimental Setup: A/Chicken/Hebei/LZF/2014(H5N2), CEF
Experimental Endpoint: EC50 (nM)
Answers are plain numbers, in nM.

Q) Record lookup: for Influenza A virus, what EC50 belongs to CCC(CC)O[C@@H]1C=C(C(=O)O)C[C@H](N)[C@H]1NC(C)=O [OSELTAMIVIR CARBOXYLATE] ?
A) 530

* * *

- Assay Notes: Inhibition of Influenza A virus (A/goose/Guangdong/SH7/2013(H5N1)) neuraminidase using 4-MU-NANA as substrate preincubated for 5 mins followed by substrate addition and measured after 30 to 60 mins by fluorescence assay
- Set-up: species or system H5N1 subtype
Record form. Attribute: IC50. Fill in for each entry.
Give bare numbers, in nM.

Consider the worked cases shown below.
CCC(CC)O[C@@H]1C=C(C(=O)O)C[C@H](NCc2ccc(OCC3CCC3)cc2)[C@H]1NC(C)=O
6000
CCC(CC)O[C@@H]1C=C(C(=O)O)C[C@H](NCc2ccc(OCC3CC3)cc2)[C@H]1NC(C)=O
1680
CCC(CC)O[C@@H]1C=C(C(=O)O)C[C@H](NCc2ccc(O[C@@H](C)c3ccccc3)cc2)[C@H]1NC(C)=O
7120
CCC(CC)O[C@@H]1C=C(C(=O)O)C[C@H](NCc2ccc(SCc3ccc(OC)cc3)cc2)[C@H]1NC(C)=O
780
CCC(CC)O[C@@H]1C=C(C(=O)O)C[C@H](NCc2ccc(C#Cc3ccccc3)cc2)[C@H]1NC(C)=O
12000
CCC(CC)O[C@@H]1C=C(C(=O)O)C[C@H](NCc2ccc(OCc3ccccc3F)cc2)[C@H]1NC(C)=O
300

For every item in the list below, what is its measured IC50?
1. CCC(CC)O[C@@H]1C=C(C(=O)O)C[C@H](NCc2ccc(OCc3cccc(C#N)c3)cc2)[C@H]1NC(C)=O
2. CCC(CC)O[C@@H]1C=C(C(=O)O)C[C@H](NCc2ccc(OCC3CCCCC3)cc2)[C@H]1NC(C)=O
3. CCC(CC)O[C@@H]1C=C(C(=O)O)C[C@H](NCc2ccc(OCc3cccc(B4OC(C)(C)C(C)(C)O4)c3)cc2)[C@H]1NC(C)=O

A)
1: 340; 2: 10500; 3: 98
